molecular target: Mitogen-activated protein kinase 10 (Homo sapiens) (UniProt P53779); conditions: at 10 µM
Sequence (P53779 whole entry): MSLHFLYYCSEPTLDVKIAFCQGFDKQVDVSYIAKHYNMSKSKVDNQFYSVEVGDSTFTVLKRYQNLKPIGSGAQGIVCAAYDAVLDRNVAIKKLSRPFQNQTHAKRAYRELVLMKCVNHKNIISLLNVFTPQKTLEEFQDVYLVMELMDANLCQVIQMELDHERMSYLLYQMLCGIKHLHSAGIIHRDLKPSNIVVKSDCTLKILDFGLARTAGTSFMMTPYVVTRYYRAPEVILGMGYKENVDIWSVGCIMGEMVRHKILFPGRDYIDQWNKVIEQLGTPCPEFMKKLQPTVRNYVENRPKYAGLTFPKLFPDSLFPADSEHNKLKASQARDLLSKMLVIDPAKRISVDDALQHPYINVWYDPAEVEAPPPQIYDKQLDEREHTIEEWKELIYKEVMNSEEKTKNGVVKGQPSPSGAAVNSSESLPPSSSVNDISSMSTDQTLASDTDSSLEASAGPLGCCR
Sorting guide: entries reporting residual activity beneath 50% go in the yes pile, the rest go in the no pile.

[
  {
    "COMPOUND SMILES": "O=C1Nc2ccc(Cl)cc2/C1=C/c1cc(Cl)c(O)c(Cl)c1",
    "STUDY TARGET": "Mitogen-activated protein kinase 10 (Homo sapiens) (UniProt P53779)",
    "CLASSIFICATION": "yes"
  },
  {
    "COMPOUND SMILES": "CCOc1nc(NC(=O)Cc2cc(OC)ccc2OC)cc(N)c1C#N",
    "STUDY TARGET": "Mitogen-activated protein kinase 10 (Homo sapiens) (UniProt P53779)",
    "CLASSIFICATION": "yes"
  },
  {
    "COMPOUND SMILES": "CN([C@@H](Cc1ccc(OS(=O)(=O)c2cccc3cnccc23)cc1)C(=O)N1CCN(c2ccccc2)CC1)S(=O)(=O)c1cccc2cnccc12",
    "STUDY TARGET": "Mitogen-activated protein kinase 10 (Homo sapiens) (UniProt P53779)",
    "CLASSIFICATION": "no"
  },
  {
    "COMPOUND SMILES": "CC(C)[C@H](CO)Nc1nc(Nc2cc(N)cc(Cl)c2)c2ncn(C(C)C)c2n1",
    "STUDY TARGET": "Mitogen-activated protein kinase 10 (Homo sapiens) (UniProt P53779)",
    "CLASSIFICATION": "no"
  },
  {
    "COMPOUND SMILES": "COc1ccc2c(c1)c(C1=C(c3c[nH]c4ccccc34)C(=O)NC1=O)cn2CCCN(C)C",
    "STUDY TARGET": "Mitogen-activated protein kinase 10 (Homo sapiens) (UniProt P53779)",
    "CLASSIFICATION": "yes"
  },
  {
    "COMPOUND SMILES": "O=C(c1cc2cc(O)ccc2[nH]1)c1cc2cc(O)ccc2[nH]1",
    "STUDY TARGET": "Mitogen-activated protein kinase 10 (Homo sapiens) (UniProt P53779)",
    "CLASSIFICATION": "yes"
  },
  {
    "COMPOUND SMILES": "COc1cc2c(cc1OC)-c1n[nH]c(Nc3cccc(F)c3)c1C2",
    "STUDY TARGET": "Mitogen-activated protein kinase 10 (Homo sapiens) (UniProt P53779)",
    "CLASSIFICATION": "yes"
  },
  {
    "COMPOUND SMILES": "NCCNc1ncc(C(N)=O)c(Nc2cccc(C(F)(F)F)c2)n1",
    "STUDY TARGET": "Mitogen-activated protein kinase 10 (Homo sapiens) (UniProt P53779)",
    "CLASSIFICATION": "yes"
  },
  {
    "COMPOUND SMILES": "O=c1c(-c2ccc(F)cc2)c(-c2ccncc2)[nH]n1-c1ccc(Cl)cc1",
    "STUDY TARGET": "Mitogen-activated protein kinase 10 (Homo sapiens) (UniProt P53779)",
    "CLASSIFICATION": "yes"
  },
  {
    "COMPOUND SMILES": "O=c1cc(N2CCNCC2)oc2c(-c3ccccc3)cccc12",
    "STUDY TARGET": "Mitogen-activated protein kinase 10 (Homo sapiens) (UniProt P53779)",
    "CLASSIFICATION": "no"
  }
]
